System: Aspergillus niger
Assay: Antifungal activity against Aspergillus niger assessed as reduction in fungal cell growth incubated for 72 hrs by broth microdilution method
Type: functional
Provide the reported MIC of each item.

q: Give its MIC value. Item: CC(n1nnc(CCN2CCN(c3ccc(Cl)cc3)CC2)n1)C(O)(Cn1cncn1)c1ccc(F)cc1F (centres undefined)
a: 1 to 16 µg/mL

q: Next molecule up: COc1ccccc1N1CCN(CCc2nnnn2C(C)C(O)(Cn2cncn2)c2ccc(F)cc2F)CC1 (centres undefined)
a: 0.5 to 16 µg/mL

q: For `C[C@H](n1nnc(CCN2CCN(c3ccc(Cl)cc3)CC2)n1)[C@](O)(Cn1cncn1)c1ccc(F)cc1F` then?
a: 0.25 to 16 µg/mL

q: Queued: OC(Cn1cncn1)(Cn1nnc(CCN2CCN(c3ccccn3)CC2)n1)c1ccc(F)cc1F (centres undefined)
a: 1 to 16 µg/mL

---

I'd be grateful if you could share measured MIC for these entries.
Tested on: Candida tropicalis
Assay: Antifungal activity against Candida tropicalis assessed as reduction in fungal cell growth incubated for 48 hrs by broth microdilution method
Assay type: functional

q: So what does the record say about MIC for `CC[C@@H]([C@H](C)O)n1ncn(-c2ccc(N3CCN(c4ccc(OC[C@@H]5CO[C@@](Cn6cncn6)(c6ccc(F)cc6F)C5)cc4)CC3)cc2)c1=O` ?
a: 0.12 to 1 µg/mL

q: Another compound to check: CC(n1nnnc1CCN1CCN(c2ccc([N+](=O)[O-])cc2)CC1)C(O)(Cn1cncn1)c1ccc(F)cc1F (configuration not stated)
a: 0.5 to 16 µg/mL

q: Repeat with CC(n1nnnc1CCN1CCN(c2cccc(Cl)c2)CC1)C(O)(Cn1cncn1)c1ccc(F)cc1F (configuration not stated)
a: 0.5 to 16 µg/mL

q: For CC(n1nnnc1CCN1CCN(Cc2ccccc2)CC1)C(O)(Cn1cncn1)c1ccc(F)cc1F (configuration not stated) then?
a: 0.5 to 16 µg/mL

q: Request: O=[N+]([O-])c1ccc(N2CCN(CCc3nnn(CC(O)(Cn4cncn4)c4ccc(F)cc4F)n3)CC2)cc1 (configuration not stated)
a: 1 to 16 µg/mL

q: Try OC(Cn1cncn1)(Cn1nnnc1CCN1CCN(c2cccc(Cl)c2)CC1)c1ccc(F)cc1F (configuration not stated) next.
a: 0.5 to 16 µg/mL

q: Also CC(n1nnnc1CCN1CCN(c2ccc(Cl)cc2)CC1)C(O)(Cn1cncn1)c1ccc(F)cc1F (configuration not stated) , if possible.
a: 0.5 to 16 µg/mL

q: Please give the result for CC(n1nnc(CCN2CCN(Cc3ccccc3)CC2)n1)C(O)(Cn1cncn1)c1ccc(F)cc1F (configuration not stated) too.
a: 1 to 16 µg/mL

q: Then COc1ccc(N2CCN(CCc3nnnn3CC(O)(Cn3cncn3)c3ccc(F)cc3F)CC2)cc1 (configuration not stated) ?
a: 0.5 to 16 µg/mL

q: Similarly, CC(n1nnnc1CCN1CCN(c2c(Cl)cccc2Cl)CC1)C(O)(Cn1cncn1)c1ccc(F)cc1F (configuration not stated) ?
a: 0.5 to 16 µg/mL

q: For OC(Cn1cncn1)(Cn1nnnc1CCN1CCN(c2ccccc2Cl)CC1)c1ccc(F)cc1F (configuration not stated) then?
a: 0.5 to 16 µg/mL

q: Next up: OC(Cn1cncn1)(Cn1nnc(CCN2CCN(Cc3ccccc3)CC2)n1)c1ccc(F)cc1F (configuration not stated)
a: 1 to 16 µg/mL

q: Follow-up item: CCC(C)n1ncn(-c2ccc(N3CCN(c4ccc(OCC5COC(Cn6cncn6)(c6ccc(Cl)cc6Cl)O5)cc4)CC3)cc2)c1=O (configuration not stated)
a: 0.007 to 0.5 µg/mL

q: Quick one: `C[C@H](n1nnc(CCN2CCN(c3ccccn3)CC2)n1)[C@](O)(Cn1cncn1)c1ccc(F)cc1F`
a: 0.25 to 16 µg/mL

q: Same read-out for COc1ccccc1N1CCN(CCc2nnnn2CC(O)(Cn2cncn2)c2ccc(F)cc2F)CC1 (configuration not stated) ?
a: 0.5 to 16 µg/mL

q: Also need OC(Cn1cncn1)(Cn1nnnc1CCN1CCN(c2cccc(C(F)(F)F)c2)CC1)c1ccc(F)cc1F (configuration not stated) , thanks.
a: 0.5 to 16 µg/mL

q: Would you mind doing `C[C@H](n1nnnc1CCN1CCN(c2ccccc2)CC1)[C@](O)(Cn1cncn1)c1ccc(F)cc1F` as well?
a: 0.12 to 16 µg/mL
